Each item that follows carries a reported pKd.
# EXPERIMENTAL TARGET: JAK2 (JH1 domain-catalytic, Y1007F, Y1008F) kinase (Homo sapiens (Human), UniProt O60674, Y1007F/Y1008F)
# Sequence (O60674 849-1124 Y1007F/Y1008F): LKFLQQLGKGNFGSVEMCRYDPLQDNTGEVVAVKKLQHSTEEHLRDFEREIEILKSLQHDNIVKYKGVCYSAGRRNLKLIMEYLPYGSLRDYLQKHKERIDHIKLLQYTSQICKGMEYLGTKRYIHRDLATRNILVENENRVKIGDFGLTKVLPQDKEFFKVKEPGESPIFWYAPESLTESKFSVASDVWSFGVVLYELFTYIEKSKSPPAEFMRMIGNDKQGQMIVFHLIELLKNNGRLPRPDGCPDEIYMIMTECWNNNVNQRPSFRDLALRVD
# EXPERIMENT DESCRIPTION: JAK2 JH1 Domain Binding Assay
# EXPERIMENTAL CONTEXT: qPCR readout
pKd: −log10 of the molar value.
MEASURED QUANTITY: pKd

- MOLECULE: "CN(C(=O)Nc1cc(C(F)(F)F)cn(C)c1=O)C1CCN(c2cnc3[nH]n(C)c(=O)c3c2)CC1"
  VALUE OBSERVED: "> 8.00"
- MOLECULE: "Cn1cc(C(F)(F)F)cc(NC(=O)C2(C3CCN(c4cnccn4)CC3)CC2)c1=O"
  VALUE OBSERVED: "6.00 to 7.30"
- MOLECULE: "CN(C(=O)Nc1cc(C(F)(F)F)cn(C)c1=O)C1CCN(c2cnc3[nH]c(=O)[nH]c3c2)CC1"
  VALUE OBSERVED: "> 8.00"
- MOLECULE: "CN(C(=O)Nc1cc(C(F)(F)F)cn(C)c1=O)[C@@H]1C[C@@H]2C[C@H]1CN2c1cnc2[nH]ccc2n1"
  VALUE OBSERVED: "7.30 to 8.00"
- MOLECULE: "Cn1cc(C(F)(F)F)cc(NC(=O)N2CCO[C@H]3CN(c4cnc(NC(=O)C5CC5)cn4)CC[C@@H]32)c1=O"
  VALUE OBSERVED: "> 8.00"
- MOLECULE: "COCc1cc2nc(N3CC[C@H]4[C@H](C3)OCCN4C(=O)Nc3cc(C(F)(F)F)cn(C)c3=O)cnc2[nH]1"
  VALUE OBSERVED: "6.00 to 7.30"
- MOLECULE: "C[C@H]1C[C@@H](N(C)C(=O)Nc2cc(C(C)(C)C)n([C@H]3C[C@H](O)C3)n2)CCN1c1cnc2[nH]ncc2c1"
  VALUE OBSERVED: "6.00 to 7.30"
- MOLECULE: "CN(C(=O)Nc1cc(C(F)(F)F)cn(C)c1=O)C1CCCN(c2cnc3[nH]ccc3n2)CC1 (single isomer, unassigned) [Example I-41-a]"
  VALUE OBSERVED: "5.30 to 6.00"
- MOLECULE: "CN(C(=O)Nc1cc(C(F)(F)F)cn(C)c1=O)[C@@H]1CCN(c2cnc3[nH]ncc3c2)CC1(C)C (single isomer, unassigned)"
  VALUE OBSERVED: "7.30 to 8.00"
- MOLECULE: "Cn1cc(C(F)(F)F)cc(NC(=O)C2(C3CCN(c4cnc5[nH]ccc5n4)CC3)CC2)c1=O"
  VALUE OBSERVED: "> 8.00"
- MOLECULE: "COCc1cc2nc(N3CC[C@@H](N(C)C(=O)Nc4cc(C(F)(F)F)cn(C)c4=O)[C@H](OC)C3)cnc2[nH]1"
  VALUE OBSERVED: "5.30 to 6.00"
- MOLECULE: "COCc1cc2nc(N3CC[C@@H](N(C)C(=O)Nc4cc(C(F)(F)F)cn(C)c4=O)[C@@H](C)C3)cnc2[nH]1"
  VALUE OBSERVED: "> 8.00"
- MOLECULE: "COc1n[nH]c2ncc(N3CC[C@@H](N(C)C(=O)Nc4cc(C(F)(F)F)cn(C)c4=O)[C@H](OC)C3)cc12"
  VALUE OBSERVED: "7.30 to 8.00"
- MOLECULE: "Cc1cc(NC(=O)N(C)C2CCN(c3cnc4[nH]ccc4n3)CC2)cc(C(F)(F)F)c1"
  VALUE OBSERVED: "> 8.00"
- MOLECULE: "Cn1cc(C(F)(F)F)cc(NC(=O)N2CCO[C@@H]3CN(c4cnc5[nH]ccc5n4)CC[C@H]32)c1=O"
  VALUE OBSERVED: "> 8.00"
- MOLECULE: "Cn1cc(C(F)(F)F)cc(NC(=O)N2CC=CC23CCN(c2cnc4[nH]cc(C#N)c4n2)CC3)c1=O"
  VALUE OBSERVED: "7.30 to 8.00"
- MOLECULE: "CN(C(=O)Nc1cc(C(F)(F)F)cn(C)c1=O)[C@H]1CCN(c2cnc3[nH]ncc3c2)C[C@@H]1F (stereo in doubt)"
  VALUE OBSERVED: "> 8.00"
- MOLECULE: "CN(C(=O)Nc1cc(C(F)(F)F)cn(C)c1=O)[C@H]1CCN(c2cnc3[nH]nc(OC4CCOCC4)c3c2)C[C@H]1F"
  VALUE OBSERVED: "> 8.00"
- MOLECULE: "CC(=O)Nc1cnc(N2CC[C@H](N(C)C(=O)Nc3cc(C(F)(F)F)cn(C)c3=O)C[C@@H]2C)cn1"
  VALUE OBSERVED: "6.00 to 7.30"
- MOLECULE: "C[C@@H]1CN(c2cnc3[nH]ncc3c2)CC[C@@H]1N(C)C(=O)Nc1cc(C(F)(F)F)cn(C)c1=O"
  VALUE OBSERVED: "> 8.00"
- MOLECULE: "CN(C(=O)Nc1cc(C(F)(F)F)ccn1)[C@H]1CCN(c2cnc3[nH]ncc3c2)CC1(F)F (mixture of isomers)"
  VALUE OBSERVED: "> 8.00"
- MOLECULE: "CNc1c[nH]c2ncc([C@H]3CC[C@H](N(C)C(=O)Nc4cc(C(F)(F)F)cn(C)c4=O)CC3)nc12"
  VALUE OBSERVED: "> 8.00"
- MOLECULE: "COc1n[nH]c2ncc(N3CCC(N(C)C(=O)Nc4cncc(C(F)(F)F)c4)CC3)cc12"
  VALUE OBSERVED: "> 8.00"
- MOLECULE: "CC(=O)Nc1c[nH]c2ncc(N3CC[C@@H](N(C)C(=O)Nc4cc(C(F)(F)F)cn(C)c4=O)C(F)(F)C3)cc12 (mixture of isomers)"
  VALUE OBSERVED: "> 8.00"
- MOLECULE: "CN(C(=O)Nc1cc(C(F)(F)F)cn(C)c1=O)[C@@H]1CCN(c2cnc3[nH]nc(OC4CCOCC4)c3c2)C[C@@H]1F"
  VALUE OBSERVED: "> 8.00"
- MOLECULE: "CN(C(=O)Nc1cc(C(F)(F)F)cn(C)c1=O)[C@H]1CC=C(c2cnc3[nH]ncc3n2)CC1 (single isomer, unassigned)"
  VALUE OBSERVED: "> 8.00"
